# assayed_target: m1 muscarinic receptors (Homo sapiens)
# Construct: expressed in transfected cells; host or cells: CHO (Chinese Hamster Ovary) cells, membranes
# Sequence (P11229 1-460): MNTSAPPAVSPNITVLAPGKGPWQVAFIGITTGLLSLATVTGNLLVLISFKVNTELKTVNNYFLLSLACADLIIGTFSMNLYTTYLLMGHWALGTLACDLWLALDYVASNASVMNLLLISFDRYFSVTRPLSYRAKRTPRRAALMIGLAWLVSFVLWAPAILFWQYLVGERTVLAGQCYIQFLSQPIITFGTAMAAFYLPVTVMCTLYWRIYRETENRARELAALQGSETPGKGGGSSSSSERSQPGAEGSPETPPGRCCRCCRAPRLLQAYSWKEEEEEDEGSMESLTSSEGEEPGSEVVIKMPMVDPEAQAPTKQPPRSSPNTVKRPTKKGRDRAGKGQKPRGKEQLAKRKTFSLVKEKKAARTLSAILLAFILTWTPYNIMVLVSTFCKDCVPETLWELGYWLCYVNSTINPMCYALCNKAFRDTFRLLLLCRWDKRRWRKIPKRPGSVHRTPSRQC
# assay_method_text: Effect on ACh binding: ACh inhibition of 3H-NMS binding (indirect assay) on CHO cell membranes
# test_settings: tested at 3 μg/ml; 0.15 nM 3H-NMS, 30 μM ACh, 0.2 mM GTP, pH 7.4, 30° C., two hours

[
  {
    "compound": "O=C(O)CC1CCc2[nH]c3ccccc3c2C1 (stereo not drawn)",
    "Effect on ACh Binding": 2.11
  },
  {
    "compound": "CSc1c(OCC(=O)O)ccc2c3ccccc3n(Cc3ccccc3)c12",
    "Effect on ACh Binding": 2.21
  },
  {
    "compound": "CCCc1cc(CC(=O)O)c(SC)c2c1c1ccccc1n2Cc1ccccc1",
    "Effect on ACh Binding": 3.99
  },
  {
    "compound": "COc1ccc2c(c1)c1c(C)cc(CC(=O)O)c(SC)c1n2Cc1ccccc1",
    "Effect on ACh Binding": 2.57
  },
  {
    "compound": "CCCSc1c(CC(=O)O)cc(C)c2c3ccccc3n(Cc3ccccc3)c12",
    "Effect on ACh Binding": 3.99
  },
  {
    "compound": "CSc1c(CC(=O)O)cc(C(C)C)c2c3ccccc3n(Cc3ccccc3)c12",
    "Effect on ACh Binding": 4.78
  },
  {
    "compound": "CCCSc1c(CC(=O)O)cc(C)c2c3ccccc3n(C)c12",
    "Effect on ACh Binding": 2.03
  },
  {
    "compound": "CSc1c(CC(=O)O)ccc2c1c1ccccc1n2Cc1ccccc1",
    "Effect on ACh Binding": 2.26
  },
  {
    "compound": "Cc1cc(CC(=O)O)c(SCc2ccccc2)c2c1c1ccccc1n2C",
    "Effect on ACh Binding": 2.13
  },
  {
    "compound": "CSc1c(Cc2nnn[nH]2)ccc2c3ccccc3n(Cc3ccccc3)c12",
    "Effect on ACh Binding": 3.69
  },
  {
    "compound": "CSc1c(Cc2nnn[nH]2)cc(C)c2c3ccccc3n(Cc3ccccc3)c12",
    "Effect on ACh Binding": 4.97
  },
  {
    "compound": "CSc1c(CC(=O)O)cc(C)c2c3ccccc3n(Cc3cccc(OCc4ccccc4)c3)c12",
    "Effect on ACh Binding": 2.36
  },
  {
    "compound": "CSc1c(CC(=O)O)ccc2c3ccccc3n(Cc3ccc(Cl)cc3)c12",
    "Effect on ACh Binding": 3.55
  },
  {
    "compound": "O=C(O)Cc1cccc2c1ccn2Cc1ccccc1",
    "Effect on ACh Binding": 2.76
  },
  {
    "compound": "CSc1c(CC(=O)O)cc(C)c2c3ccccc3n(CCc3ccccc3)c12",
    "Effect on ACh Binding": 4.93
  },
  {
    "compound": "CSc1c(CC(=O)O)cc(C)c2c3ccccc3n(Cc3ccccc3)c12",
    "Effect on ACh Binding": 3.89
  },
  {
    "compound": "O=C(O)Cc1ccc2c3ccccc3n(Cc3cccc(OCc4ccccc4)c3)c2c1",
    "Effect on ACh Binding": 2.24
  },
  {
    "compound": "Cc1cc(CC(=O)O)c(S(C)(=O)=O)c2c1c1ccccc1n2Cc1ccccc1",
    "Effect on ACh Binding": 2.66
  }
]
